Tested on: ADP induced platelet aggregation
Test: ADP induced platelet aggregation, maximum aggregation rate after administration to rats
Assay type: in vivo, Wistar male rats
Design: unit not given here
Details: ADP induced, rats, 3 mg/kg, blood drawn 2 hours after administration
RECORDED METRIC: Maximum Platelet Aggregation Rate

COMPOUND	VALUE REPORTED
[2H]C([2H])([2H])OC(=O)[C@H](c1ccccc1Cl)N1CCc2sc(OP(=O)(Oc3ccccc3)Oc3ccccc3)cc2C1	36.2
[2H]C([2H])([2H])OC(=O)[C@H](c1ccccc1Cl)N1CCc2sc(OP(=O)(OCC)OCC)cc2C1	32.7
[2H]C([2H])([2H])OC(=O)[C@H](c1ccccc1Cl)N1CCc2sc(OP(=O)(OC)OC)cc2C1	35.6
COC(=O)[C@H](c1ccccc1Cl)N1CCc2sccc2C1 [clopidogrel, Clopidogrel, reference compound]	46.77
[2H]C([2H])([2H])OC(=O)[C@H](c1ccccc1Cl)N1CCc2sc(OCOP(=O)(O)O)cc2C1	16.3
CC(=O)Oc1cc2c(s1)CCN(C(C(=O)C1CC1)c1ccccc1F)C2 (centres unmarked) [prasugrel, reference compound]	20.72
[2H]C([2H])([2H])OC(=O)[C@H](c1ccccc1Cl)N1CCc2sc(OCOP(=O)(OC(C)(C)C)OC(C)(C)C)cc2C1	27.1
[2H]C([2H])([2H])OC(=O)[C@H](c1ccccc1Cl)N1CCc2sc(OP(=O)(OC(C)C)OC(C)C)cc2C1	28.4

Data credit: patent US11130766B2
